src = ChEMBL document CHEMBL4715736

Entries and their GI50 values follow.
# Tested on: CAKI-1
# assay: Growth inhibition of human CAKI-1 cells incubated for 48 hrs by sulforhodamine B assay
# Format: functional
measurement-kind: GI50

- smiles-text: "Cc1cccc(NC(=O)c2sc3nc4c(cc3c2N)C(=O)CCC4)c1"
  measurement-kind: "GI50"
  recorded-result: "0.359 µM"
- smiles-text: "Cc1cc(C)c(NC(=O)c2sc3nc4c(cc3c2N)CN(Cc2ccccc2)CC4)c(C)c1"
  measurement-kind: "GI50"
  recorded-result: "2.81 µM"
- smiles-text: "COc1cccc(NC(=O)c2sc3nc4c(cc3c2N)CN(Cc2ccccc2)CC4)c1"
  measurement-kind: "GI50"
  recorded-result: "11.7 µM"
- smiles-text: "CN1CCc2nc3sc(C(N)=O)c(N)c3c(-c3cccs3)c2C1"
  measurement-kind: "GI50"
  recorded-result: "2.82 µM"
- smiles-text: "Nc1c(C(=O)Nc2ccccc2)sc2nc3c(cc12)CN(Cc1ccccc1)CC3"
  measurement-kind: "GI50"
  recorded-result: "19.7 µM"
- smiles-text: "CCc1ccccc1NC(=O)c1sc2nc3c(cc2c1N)C(=O)CCC3"
  measurement-kind: "GI50"
  recorded-result: "0.504 µM"
- smiles-text: "CCc1cccc(C)c1NC(=O)c1sc2nc3c(cc2c1N)C(=O)CCC3"
  measurement-kind: "GI50"
  recorded-result: "0.511 µM"
